# measurement_notes: Test on the drug absorption in SD rat, intravenous injection (iv)
# Type: in vivo
# applied_conditions: male, 5 mg/kg, plasma
readout_name: AUC(0-t) (ng·h/mL)
Express your answer in ng·h/mL, writing the number without its unit.

[in] Need AUC(0-t) of C=CC(=O)Nc1ccc2ncnc(Nc3ccc(OCc4cccc(F)c4)c(Cl)c3)c2c1.Cc1ccc(S(=O)(=O)O)cc1 [p-toluene sulfonate] , thanks.
[out] 1860

====

# measurement_notes: in vivo
# applied_conditions: male, SD, rat, po, 21.68 mg/kg, AUC0-t
readout_name: AUC(0-t) (ng·h/mL)
Give just the numeric value; ng·h/mL need not be written.

[in] For the molecule shown here, C=CC(=O)Nc1ccc2ncnc(Nc3ccc(OCc4cccc(F)c4)c(Cl)c3)c2c1 [The compound of Example 1] , give the reported AUC(0-t).
[out] 106

====

# measurement_notes: in vivo
# applied_conditions: male, SD, rat, po, 21.68 mg/kg, Tmax
readout_name: Tmax
Write your answer as a measured quantity: the number, then the unit.

[in] For C=CC(=O)Nc1ccc2ncnc(Nc3ccc(OCc4cccc(F)c4)c(Cl)c3)c2c1 [The compound of Example 1] , what is its reported Tmax?
[out] 45 min

====

# measurement_notes: in vivo
# applied_conditions: male, SD, rat, absolute bioavailability
readout_name: bioavailability (%)
Please give a number only; it is taken to be in %.

[in] Recorded bioavailability of C=CC(=O)Nc1ccc2ncnc(Nc3ccc(OCc4cccc(F)c4)c(Cl)c3)c2c1.Cc1ccc(S(=O)(=O)O)cc1 [Crystalline form A] , please.
[out] 8.75

[in] For the compound shown here, C=CC(=O)Nc1ccc2ncnc(Nc3ccc(OCc4cccc(F)c4)c(Cl)c3)c2c1 [The compound of Example 1] , give the reported bioavailability.
[out] 0.95

====

# measurement_notes: in vivo
# applied_conditions: male, SD, rat, po, 21.68 mg/kg, T1/2
readout_name: half-life (min)
All answers are understood in min, so give the number only.

[in] Bench note: what half-life did C=CC(=O)Nc1ccc2ncnc(Nc3ccc(OCc4cccc(F)c4)c(Cl)c3)c2c1 [The compound of Example 1] show?
[out] 109

====

# measurement_notes: in vivo
# applied_conditions: male, SD, rat, po, 21.68 mg/kg, Cmax
readout_name: Cmax (ng/mL)
Numbers only here, please. The scale is ng/mL.

[in] Record request: Cmax value, item C=CC(=O)Nc1ccc2ncnc(Nc3ccc(OCc4cccc(F)c4)c(Cl)c3)c2c1 [The compound of Example 1]
[out] 32

====

# measurement_notes: in vivo
# applied_conditions: male, SD, rat, po, 30 mg/kg, AUC0-t
readout_name: AUC(0-t) (ng·h/mL)
Could you give me the number in ng·h/mL? Just the number is fine.

[in] Using the record for C=CC(=O)Nc1ccc2ncnc(Nc3ccc(OCc4cccc(F)c4)c(Cl)c3)c2c1.Cc1ccc(S(=O)(=O)O)cc1 [Crystalline form C] , report its AUC(0-t).
[out] 577

====

# measurement_notes: Test on the drug absorption in SD rat, intravenous injection (iv)
# Type: in vivo
# applied_conditions: male, 5 mg/kg, plasma
readout_name: half-life (h)
# number only, unit h dropped from output

[in] Param item = C=CC(=O)Nc1ccc2ncnc(Nc3ccc(OCc4cccc(F)c4)c(Cl)c3)c2c1.Cc1ccc(S(=O)(=O)O)cc1 [p-toluene sulfonate] ; retrieve measured half-life.
[out] 1.55

The measurements presented in this section are drawn from patent US8507010B2.
